- TARGET_SYSTEM: UniProt:O14744
- Sequence (O14744 whole entry, species assumed): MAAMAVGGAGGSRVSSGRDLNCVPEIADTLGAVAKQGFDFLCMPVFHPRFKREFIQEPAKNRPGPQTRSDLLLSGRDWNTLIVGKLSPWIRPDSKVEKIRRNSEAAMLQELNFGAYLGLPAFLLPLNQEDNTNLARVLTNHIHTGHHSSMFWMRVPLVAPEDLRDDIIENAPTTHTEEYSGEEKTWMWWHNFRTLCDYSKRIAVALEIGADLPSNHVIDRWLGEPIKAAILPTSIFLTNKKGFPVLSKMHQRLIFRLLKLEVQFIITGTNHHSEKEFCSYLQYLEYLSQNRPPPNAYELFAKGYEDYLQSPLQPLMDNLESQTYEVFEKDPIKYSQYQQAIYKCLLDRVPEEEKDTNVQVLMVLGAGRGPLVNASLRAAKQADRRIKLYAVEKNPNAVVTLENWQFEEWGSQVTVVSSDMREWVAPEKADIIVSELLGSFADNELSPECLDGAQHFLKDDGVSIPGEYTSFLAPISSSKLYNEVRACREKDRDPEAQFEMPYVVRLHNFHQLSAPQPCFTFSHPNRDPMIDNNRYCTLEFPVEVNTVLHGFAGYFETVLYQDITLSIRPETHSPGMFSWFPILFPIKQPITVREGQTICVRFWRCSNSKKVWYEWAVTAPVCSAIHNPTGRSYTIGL
- Sequence (Q9BQA1 whole entry partner, species assumed): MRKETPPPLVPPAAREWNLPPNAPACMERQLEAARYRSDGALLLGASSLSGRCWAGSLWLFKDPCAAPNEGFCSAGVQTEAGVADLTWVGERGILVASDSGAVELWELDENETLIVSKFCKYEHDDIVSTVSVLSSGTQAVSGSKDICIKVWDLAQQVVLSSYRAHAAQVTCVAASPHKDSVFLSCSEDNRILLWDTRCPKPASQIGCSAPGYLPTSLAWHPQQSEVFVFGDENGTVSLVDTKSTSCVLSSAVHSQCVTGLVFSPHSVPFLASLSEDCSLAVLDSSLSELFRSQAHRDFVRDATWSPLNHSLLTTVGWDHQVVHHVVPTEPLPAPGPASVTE
pIC50: −log10 of the molar value.
MEASUREMENT_LABEL: pIC50

Form field pIC50 for item CC1(C)Cn2c(nc3cc(CC[C@H]4C[C@@H](n5ccc6c(N)ncnc65)[C@H](O)[C@@H]4O)ccc3c2=O)N1 [Compound 1-18] on UniProt:O14744: 7.00 to 9.00

Param item: Nc1ncnc2c1ccn2[C@@H]1C[C@H](CCc2ccc3cc4c(nc3c2)NCCS4)[C@@H](O)[C@H]1O [Compound 1-13] ; param system: UniProt:O14744; output pIC50: > 9.00

Fill in: UniProt:O14744 pIC50 for CN1C(N)=Nc2cc(CC[C@H]3C[C@@H](n4ccc5c(N)ncnc54)[C@H](O)[C@@H]3O)ccc2S1(=O)=O [Compound 1-14] = > 9.00
